- target-system: recombinant BACE1 protein (Homo sapiens, UniProt P56817)
- Sequence (P56817 46-501): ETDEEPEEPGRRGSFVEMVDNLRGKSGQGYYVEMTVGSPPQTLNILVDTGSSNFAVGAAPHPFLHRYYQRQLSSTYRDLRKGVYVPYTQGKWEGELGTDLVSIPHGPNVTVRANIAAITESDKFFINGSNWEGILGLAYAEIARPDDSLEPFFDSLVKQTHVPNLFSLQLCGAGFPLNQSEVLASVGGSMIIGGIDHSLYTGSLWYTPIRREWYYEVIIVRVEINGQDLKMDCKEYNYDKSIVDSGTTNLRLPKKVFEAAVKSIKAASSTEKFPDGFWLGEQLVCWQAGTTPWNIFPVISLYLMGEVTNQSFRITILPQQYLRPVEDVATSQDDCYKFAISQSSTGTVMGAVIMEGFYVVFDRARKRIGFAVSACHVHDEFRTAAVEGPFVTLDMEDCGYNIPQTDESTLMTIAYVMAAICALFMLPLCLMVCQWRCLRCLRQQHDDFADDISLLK
- procedure-details: BACE1 biochemical FRET based assay
- measurement-setup: BACE1 0.04 μg/ml, 20 μM substrate, pH 5.0, 450 min; read-out: Biochemical FRET based assay pIC50 (converted)
reported-metric: IC50
Note: a bare number is incomplete; add the unit.

Solved cases below.
smiles=Cn1cc2n(c1=O)C[C@@](C)(c1cc(NC(=O)c3ccc(F)cn3)ccc1F)N=C2N reported_metric=IC50 data_value="15.1 nM"
smiles=Cn1cc2n(c1=O)C[C@@](C)(c1cc(-c3cncnc3)ccc1F)N=C2N reported_metric=IC50 data_value="490 nM"
smiles=Cn1cc2n(c1=O)C[C@@](C)(c1cc(NC(=O)c3ccc(C#N)cn3)ccc1F)N=C2N reported_metric=IC50 data_value="2.95 nM"

Batch request: IC50 per item, same order as input.
1. Cn1cc2n(c1=O)C[C@@](C)(c1cc(NC(=O)c3ccc(Cl)cn3)ccc1F)N=C2N
2. Cc1cc(C#N)cnc1C(=O)Nc1ccc(F)c([C@]2(C)Cn3c(cn(C)c3=O)C(N)=N2)c1
3. C[C@@]1(c2cc(NC(=O)c3ccc(C#N)cn3)ccc2F)Cn2c(cn(CC(F)(F)F)c2=O)C(N)=N1
4. C[C@@]1(c2cc(NC(=O)c3ccc(Cl)cn3)ccc2F)Cn2c(cn(CC(F)(F)F)c2=O)C(N)=N1

[reply]
1. 3.98 nM
2. 7.76 nM
3. 5.62 nM
4. 4.68 nM

[ask] # input compound: COc1cnc(C(=O)Nc2ccc(F)c([C@]3(C)Cn4c(cn(CC(F)(F)F)c4=O)C(N)=N3)c2)cn1 ; wanted: its IC50
[reply] 8.71 nM
